src = the supplement of paper PMC7125110

B1: glmS ribozyme (parent)
chain: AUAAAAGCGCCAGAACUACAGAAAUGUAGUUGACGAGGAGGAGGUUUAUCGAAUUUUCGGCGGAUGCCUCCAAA

# Variants of: B1
# run-description: self-cleavage kobs at 10000 uM GlcN6P; higher = faster cleavage; RNA array
# test-context: with glucosamine-6-phosphate
Fewer inactive variants are shown than the library holds.
readout: self-cleavage kobs at 10000 uM GlcN6P

[[record]]
sequence_entry = "AUAAAAGCGCCAGAACUACAGAAAUGUAGUUCACGAGUAGGCCGUUUAUCGCAUUUUCGGCGGAUGCCUCCAAA [G32C G38U A42C G43C A52C]"
readout = "self-cleavage kobs at 10000 uM GlcN6P"
result = "< 1e-05 s⁻¹"

[[record]]
sequence_entry = "AUAAAAGCGCCAGUACUACAGAAAUGUAGUUGACGAGGAGGUGGUUUAUCGAAUUUUCGGCGGAUGCCUCCAAA [A14U A42U]"
readout = "self-cleavage kobs at 10000 uM GlcN6P"
result = "3.02e-05 s⁻¹"

[[record]]
sequence_entry = "AUAAAAGCGCCAGAACUACAGAAAUGUAGUGGACGAGGAGGAGGUUUAUCGAAUUUUCGGCGGAUGACUCCAAA [U31G C67A]"
readout = "self-cleavage kobs at 10000 uM GlcN6P"
result = "0.00286 s⁻¹"

[[record]]
sequence_entry = "AUAAAAGCGCCAGAACUACAGAAAUGUAGUUGACAAGGAGGAGGUAUAUCGAAUUUUCGGCGGAUGCCUCCAAA [G35A U46A]"
readout = "self-cleavage kobs at 10000 uM GlcN6P"
result = "< 1e-05 s⁻¹"

[[record]]
sequence_entry = "AUAAAAGCGCCAGAACUACAGAAAUGUAGUUGACGAGGAGGAGGUUUAUCGAAUUUUCUGCGGAUUCCUCCAAA [G59U G66U]"
readout = "self-cleavage kobs at 10000 uM GlcN6P"
result = "< 1e-05 s⁻¹"

[[record]]
sequence_entry = "AUAAAGGCGCCAGAACUACAGAAAUGUAGAUGACGAGGAGGAGGUUUAUCGAAUUUUCGGCGGAUGCCUCCAAA [A6G U30A]"
readout = "self-cleavage kobs at 10000 uM GlcN6P"
result = "4.4e-05 s⁻¹"

[[record]]
sequence_entry = "AUAAAAGCGCCAGAACUACAGAAAUGUAGUUGACGAGGAGGAGGUUUAUCGAAUGUCCGGCGGAUGCCUCCAAA [U55G U57C]"
readout = "self-cleavage kobs at 10000 uM GlcN6P"
result = "0.000174 s⁻¹"

[[record]]
sequence_entry = "AUAAAACCGCCAGAACUACAGAAAUGUAGUUGACGAGGAGGAGGUUUAUCAAAUUUUCGGCGGAUGCCUCCAAA [G7C G51A]"
readout = "self-cleavage kobs at 10000 uM GlcN6P"
result = "< 1e-05 s⁻¹"

[[record]]
sequence_entry = "AUAAAAGCGCCAGAACUACAGAAAUGUAGUAAACGAGGAGGGGGUUUAUCGAAUUUUCGGCGGAUGCCUCCAAA [U31A G32A A42G]"
readout = "self-cleavage kobs at 10000 uM GlcN6P"
result = "0.000766 s⁻¹"

[[record]]
sequence_entry = "AUAAAAGCGCCAGAACUACAGAAAUGUAGUUGACGAGGAGGAGGUUUUUCGAGUUUUCGGCGGAUGCCUCCAAA [A48U A53G]"
readout = "self-cleavage kobs at 10000 uM GlcN6P"
result = "0.000349 s⁻¹"

[[record]]
sequence_entry = "AUAAAGGCGCCAGAACUACAGAAAUGUAGUUGACGAGGAGGAGUUUUAUCGAAUUUUCGGCUAAUGCCACCAAA [A6G G44U G62U G63A U69A]"
readout = "self-cleavage kobs at 10000 uM GlcN6P"
result = "< 1e-05 s⁻¹"

